Experiment: small-molecule microarray binders of probe aWnt5a, primary screen, biochemical, biotinylated probe, 635/667 nm fluorescence (AID 1113);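 note: score merges 667 nm fluorescence intensity with signal-to-noise per printed feature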
Settings: higher = more signal
Measured Metric: composite z-score
Number only, please.

Reference set, count: 4
>>> value_reported("O=C1[C@H]2[C@H]3[C@H](O)[C@H](O)CC(=NOC[C@@H](O)COCc4ccco4)[C@H]3CC[C@H]2C(=O)N1c1cccc(Oc2ccccc2)c1")
-0.0792
>>> value_reported("CCN1C(=O)[C@H]2[C@H]3[C@H](O)[C@H](O)CC(=NOCc4ccccc4)[C@@H]3CC[C@H]2C1=O")
-0.0819
>>> value_reported("COCCOC(=O)N1C(=O)[C@@]2(c3cc(C#Cc4ccc(OC)cc4)ccc31)[C@H](c1ccc(O)cc1)N1[C@H](c3ccccc3)[C@H](c3ccccc3)OC(=O)[C@H]1[C@@H]2C(N)=O")
0.0045
>>> value_reported("O[C@@H](Cc1ccccc1)[C@H]1C2C=CCCC(c3ccccc3)=C2CN1Cc1cccc(Cl)c1 (stereo not given in full)")
-0.157

Attention now turns to another entry.
For Cc1ccc(S[C@]2(C(=O)NCC(F)(F)F)CC(=O)N(Cc3ccccc3Cl)[C@@H]2c2ccc(CO)cc2I)cc1 , write its composite z-score. -0.12

---

Assay: CREB reporter modulators under forskolin, primary screen, cell-based, PC12, CRE-LacZ reporter, forskolin-stimulated (AID 1146);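 note: PC12 cells with 6xCRE LacZ reporter stimulated by forskolin 10 µM; beta-galactosidase reporter signal reflecting CREB driven transcription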
Conditions: luminescence, 4.5 h, higher = more signal, called active from +8 up or from −8 down
As shown below, each of these molecules has a reported z-score value.
Give the value as a plain number.

>>> value_reported("O=C(CS)NCCCCCNC(=O)[C@H]1C[C@H]2C(=O)N3CCC[C@H]3C(=O)N2[C@H]1c1cccc(OCCO)c1")
0.899
>>> value_reported("COCC(=C=CC[C@@H](O)c1ccccc1OCCO)CCO")
-0.732
>>> value_reported("CCOC(=O)[C@H](CC(C)C)NC(=O)CCC1CC(OC(=O)NCc2cccc3ccccc23)CC2(CCCC(COC(=O)NCCc3ccccc3OC)O2)O1 (some centres not stated)")
0.0744
>>> value_reported("COc1ccc(O[C@H]2C=C[C@@H](c3ccccc3)O[C@@H]2COC(=O)CCC(C)=NOC(C)CN2CCCCc3nc(C)c(C)cc32)cc1 (some centres not stated)")
0.287
>>> value_reported("COc1cccc([C@H]2Oc3ccc(OC)cc3C(=NOC(C)CN3CCCc4nc(C)c(C)cc43)[C@@H]2O)c1 (some centres not stated)")
-0.0145
>>> value_reported("Cc1cc2c(c(=O)o1)[C@H](O)[C@H]1O[C@H]1C2=O")
2.18

Let us examine a further case.
Supply recorded z-score for C=CCOC(=O)[C@H]1[C@@H]2C(=O)O[C@@H](c3ccccc3)[C@@H](c3ccccc3)N2[C@@H](c2ccc(OCCOC(=O)[C@H]3C[C@H]4C(=O)N[C@@H](Cc5ccccc5)C(=O)N4[C@H]3c3ccc(O)cc3)cc2)[C@]12C(=O)Nc1ccccc12 here. -0.231

---

Tested on: Human papillomavirus type 1a E7 protein (residues 1-88)
Experiment: HPV1a E7 small-molecule binders, primary screen, biochemical, small-molecule microarray, residues 1-88, 635 nm (AID 1129)
Settings: small-molecule microarray binding, fluorescence 635 nm; higher = more signal
Catalogue of compounds with associated composite z-score
// response body must contain only the number

Please review the entries below; each comes with its answer.
>>> value_reported("CCc1cc2c(nc1CC)CCN(CCC(C)=NOC[C@@H](O)[C@H]1O[C@@H]3OC(C)(C)O[C@@H]3[C@H]1O)C2")
-0.0321
>>> value_reported("COc1ccc([Si](C)(C)[C@H]2[C@H](CCO)O[C@@]3(C(=O)N(Cc4cccc(NC(=O)[C@H](C)O)c4)c4ccccc43)[C@@H]2C)cc1")
1.15
>>> value_reported("C[C@@H]1C=CCC(=O)OC[C@H](C)C(=O)N2CCC[C@H]2C(=O)OC1")
0.589

Then this compound:
Return value of composite z-score for input CC1CC/C=C\[C@H]2OC34C=CCN(Cn5nnc6ccccc65)C(=O)[C@H]3N(CCO)C(=O)[C@@H]4C2C(=O)O1 (some centres undefined) , no commentary. 1.16

Reference source: PubChem BioAssay
